- Assay Method Text: Native mass spectrometry of pH-induced changes in oligomeric state
- Format: physicochemical
- Condition Set: native MS, evaluated from pH 7 down to pH 3
Metric: pH transition point of disassembly (pH set point, pH0)

# Molecule, Reported
measured = [
    ("pRO-2.1: pRO-2 variant, SEQ ID NO: 3-4 (protein) chain 1: MGSHHHHHHGSGSENLYFQGSEYEIRKALEELKAALAELKRATASLRAITEELKKNPSEDALVEHNRAIVEHNAIIVEVLRIIAAVLELIVRAIK chain 2: SEYEIRKALEELKAALAELKRATASLRAITEELKKNPSEDALVEHNRAIVEHNAIIVEVLRIIAAVLELIVRAIK", "~3.5 pH"),
]

// switching to the query molecule
Note pH transition point of disassembly (pH set point, pH0) for the molecule shown: pRO-2.5: pRO-2 variant, SEQ ID NO: 11-12 (protein) chain 1: MGSHHHHHHGSGSENLYFQGSEYEIRKALEELKASTAELKRATASLRASTEELKKNPSEDALVENNRLIVEHNAIIVENNRIIAAVLELIVRAIK chain 2: SEYEIRKALEELKASTAELKRATASLRASTEELKKNPSEDALVENNRLIVEHNAIIVENNRIIAAVLELIVRAIK
~4 pH

The measured values listed here are drawn from patent US20220144895A1.
